biological target: T1, human CD47 expressed on the cell surface (human, UniProt Q08722 19-323); test: saturating cellular FACS on L450cy lymphoma cells
T1 construct: whole, on cells; also called CD47 on SW780, human red blood cells, HT1080, HCT116, Raji, L450cy and patient blood cells
The entries below come with measured Kd values attached.

Before answering, review these 4 worked examples.
hB6H12.1 (antibody, V domains shown, also called hvH1/hvK1; antibody 1 (bin A)) VH: EVQLLESGGGLVQPGGSLRLSCAASGFTFSGYGMSWVRQAPGKRLEWVATITSGGTYTYYPDSVKGRFTISRDNSKNTLYLQMNSLRAEDTAIYFCARSLAGNAMDYWGQGTLVTVSS VL: EIVMTQSPDFQSVTPKEKVTLTCRASQTISDYLHWYQQKPDQSPKLLIKFASQSISGVPSRFSGSGSGTDFTLTINSLEAEDAAVYYCQNGHGFPRTFGQGTKLEIKR; 0.9 nM
hB6H12.17 (antibody, V domains shown, also called hvH5/hvK1; antibody 17 (bin B)) VH: EVQLVESGGGLVQPGGSLRLSCAASGFTFSGYGMSWVRQAPGKGLEWVATITSGGTYTYYADSVKGRFTISRDNSKNTLYLQINSLRAEDTAVYYCARSLAGNAMDYWGQGTLVTVSS VL: EIVMTQSPDFQSVTPKEKVTLTCRASQTISDYLHWYQQKPDQSPKLLIKFASQSISGVPSRFSGSGSGTDFTLTINSLEAEDAAVYYCQNGHGFPRTFGQGTKLEIKR; 1 nM
Ab47 (antibody, V domains shown, Humanized IgG1; also called alternatively humanized antibody Ab47; humanized IgG1 hB6H12 Ab47) VH: EVQLVESGGGLVQPGGSLRLSCAASGFTFSGYGMSWVRQAPGKGLEWVATITSGGTYTYYPDSVKGRFTISRDNAKNSLYLQMNSLRAEDTAVYYCARSLAGNAMDYWGQGTLVTVSS VL: EIVLTQSPATLSLSPGERATLSCRASQTISDYLHWYQQKPGQAPRLLIKFASQSISGIPARFSGSGSGTDFTLTISSLEPEDFAVYYCQNGHGFPRTFGQGTKVEIKR; 0.5 nM
hB6H12.20 (antibody, V domains shown, also called hvH5/hvK4; antibody 20 (bin B)) VH: EVQLVESGGGLVQPGGSLRLSCAASGFTFSGYGMSWVRQAPGKGLEWVATITSGGTYTYYADSVKGRFTISRDNSKNTLYLQINSLRAEDTAVYYCARSLAGNAMDYWGQGTLVTVSS VL: DIQMTQSPSSLSASVGDRVTLTCRASQTISNYLAWYQQKPGKVPKLLIKFASTLQSGVPSRFSGSGSGSDFTLTISSLQPEDVATYYCQNGHGFPRTFGQGTKLEIKR; 1.8 nM

// hB6H12.19 (antibody, V domains shown, also called hvH5/hvK3; antibody 19 (bin B)) VH: EVQLVESGGGLVQPGGSLRLSCAASGFTFSGYGMSWVRQAPGKGLEWVATITSGGTYTYYADSVKGRFTISRDNSKNTLYLQINSLRAEDTAVYYCARSLAGNAMDYWGQGTLVTVSS VL: EIVMTQSPDFQSVTPKEKVTLTCRASQTISDYLHWYQQKPDQSPKLLIKFASQSISGVPSRFSGSGSGSDFTLTINSLEAEDAATYYCQNGHGFPRTFGQGTKLEIKR : Kd value = 1.3 nM

The binder hB6H12.18 (antibody, V domains shown, also called hvH5/hvK2; antibody 18 (bin B)) VH: EVQLVESGGGLVQPGGSLRLSCAASGFTFSGYGMSWVRQAPGKGLEWVATITSGGTYTYYADSVKGRFTISRDNSKNTLYLQINSLRAEDTAVYYCARSLAGNAMDYWGQGTLVTVSS VL: EIVMTQSPDFQSVTPKEKVTLTCRASQTISDYLHWYQQKPDQSPKLLIKFASQSISGVPSRFSGSGSGTDFTLTINSLEAEDAATYYCQNGHGFPRTFGQGTKLEIKR showed Kd equal to 1.1 nM
